ASSAY TARGET: Beta-secretase 1 (Homo sapiens)
Below, each of the molecules is paired with its reported IC50 value.

- SMILES: "C[C@@H]1CC(=O)NCCCCOc2cccc(c2)C[C@@H]([C@H](O)CNCc2cccc(C(C)(C)C)c2)NC1=O"
  IC50, nM: 69
- SMILES: "CC(C)c1ccnc(C2(NC[C@@H](O)[C@@H]3Cc4cccc(c4)CCCCNc4cc(cc(Cl)n4)C(=O)N3)CC2)c1"
  IC50, nM: 0.5
- SMILES: "C[C@@H]1CCCCCCCOc2cc(cc(C(=O)N(C)C)c2)C(=O)N[C@H]([C@H](O)CNC2(c3cc(C(C)(C)C)ccn3)CC2)C1"
  IC50, nM: 6
- SMILES: "COC(=O)c1cc2cc(c1)C(=O)N[C@H]([C@H](O)CNCc1cccc(C(C)C)c1)Cc1cccc(c1)CCCCO2"
  IC50, nM: 180

====

Below, each of the molecules is paired with its reported pIC50 value.
ASSAY TARGET: Beta-secretase 1 (Homo sapiens, UniProt P56817)
Sequence (P56817 whole entry): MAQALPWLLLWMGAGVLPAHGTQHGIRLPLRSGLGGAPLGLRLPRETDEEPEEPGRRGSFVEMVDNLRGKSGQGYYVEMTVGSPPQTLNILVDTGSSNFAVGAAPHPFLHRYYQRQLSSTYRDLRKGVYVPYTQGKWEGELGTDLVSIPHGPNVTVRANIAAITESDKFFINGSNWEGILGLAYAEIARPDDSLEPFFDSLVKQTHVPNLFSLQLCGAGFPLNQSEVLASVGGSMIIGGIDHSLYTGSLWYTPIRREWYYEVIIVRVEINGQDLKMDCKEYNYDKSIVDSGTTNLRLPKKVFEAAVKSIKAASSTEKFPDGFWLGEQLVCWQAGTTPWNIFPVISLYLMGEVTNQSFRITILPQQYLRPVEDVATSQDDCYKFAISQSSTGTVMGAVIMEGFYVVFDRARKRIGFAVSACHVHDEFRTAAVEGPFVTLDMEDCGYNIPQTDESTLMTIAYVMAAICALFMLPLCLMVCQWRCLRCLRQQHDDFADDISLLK
pIC50: −log10 of the molar value.

- MOLECULE: "C/C1=C\\CCCCCCNc2cc(cc(C)n2)C(=O)N[C@H]([C@H](O)CNCc2cccc(C(C)C)c2)C1 [BACE_45]"
  ASSAY TARGET: "Beta-secretase 1 (Homo sapiens, UniProt P56817)"
  pIC50: 8.14
- MOLECULE: "COCc1cc2cc(c1)C(=O)N[C@H]([C@H](O)CNCc1cccc(C(C)C)c1)C[C@H](C)CCCCCCCN2 [BACE_9]"
  ASSAY TARGET: "Beta-secretase 1 (Homo sapiens, UniProt P56817)"
  pIC50: 7.03
- MOLECULE: "CCCCNC(=O)[C@H](C)C[C@H](O)[C@@H]1Cc2cccc(c2)OCCCCCC(=O)N[C@@H](C)C(=O)N1 [BACE_153]"
  ASSAY TARGET: "Beta-secretase 1 (Homo sapiens, UniProt P56817)"
  pIC50: 6.16
- MOLECULE: "CC(C)c1cccc(C(C)(C)NC[C@@H](O)[C@@H]2Cc3cccc(c3)OCCCCNc3cncc(c3)C(=O)N2)c1 [BACE_114]"
  ASSAY TARGET: "Beta-secretase 1 (Homo sapiens, UniProt P56817)"
  pIC50: 7.24
- MOLECULE: "C[C@@H]1CCCCCCCCC(=O)N(C)[C@@H](C)C(=O)N[C@H]([C@H](O)CNC(C)(C)c2cc(CC(C)(C)C)on2)C1 [BACE_27]"
  ASSAY TARGET: "Beta-secretase 1 (Homo sapiens, UniProt P56817)"
  pIC50: 8.24
- MOLECULE: "CC(C)c1cccc(CNC[C@@H](O)[C@@H]2Cc3ccc(O)c(c3)Cc3ccccc3OCC(=O)N[C@@H](C)C(=O)N2)c1 [BACE_88]"
  ASSAY TARGET: "Beta-secretase 1 (Homo sapiens, UniProt P56817)"
  pIC50: 5.37
- MOLECULE: "COCc1cc2cc(c1)C(=O)N[C@H]([C@H](O)CNC1(c3cccc(C(C)(C)C)c3)CC1)C[C@H](C)CCOC/C=C\\CN2 [BACE_75]"
  ASSAY TARGET: "Beta-secretase 1 (Homo sapiens, UniProt P56817)"
  pIC50: 7.22

====

ASSAY TARGET: UniProt:P56817
Strictly below 0.1 µM in IC50: fulfilled. Otherwise: not fulfilled.

- SMILES: "C[C@@H]1CCCCCCCNc2cc(cc(-c3ncco3)c2)C(=O)N[C@H]([C@H](O)CNC2(c3cc(C(C)(C)C)ccn3)CC2)C1"
  LABEL: "fulfilled"
- SMILES: "C[C@@H]1CC(=O)NCCCCOc2cccc(c2)C[C@@H]([C@H](O)CNC2(c3cccc(C(C)(C)C)c3)CCCCC2)NC1=O"
  LABEL: "fulfilled"
- SMILES: "Cc1cc2cc(n1)OCCCCc1cccc(c1)C[C@@H]([C@H](O)CNC(C)(C)c1cccc(C(C)C)c1)NC2=O"
  LABEL: "not fulfilled"
- SMILES: "CC(C)(NC[C@@H](O)[C@@H]1Cc2cccc(c2)CCCCNc2cc(c[n+](Cc3ccccc3)c2)C(=O)N1)c1cccc(Br)c1"
  LABEL: "not fulfilled"
- SMILES: "CN(C)C(=O)c1cc2cc(c1)C(=O)N[C@H]([C@H](O)CNC1(c3cccc(C(C)(C)C)c3)CC1)Cc1ccc(F)c(c1)OC/C=C\\CN2"
  LABEL: "fulfilled"
- SMILES: "CCCCNC(=O)[C@H](C)C[C@H](O)[C@@H]1Cc2ccc(O)c(c2)Cc2ccccc2OCCCCC(=O)N1"
  LABEL: "not fulfilled"

====

A set of compounds tested on Beta-secretase 1 (Homo sapiens), with measured IC50:
REPORTED ENDPOINT: IC50

- COMPOUND: "CC(C)c1cccc(CNC[C@@H](O)[C@@H]2C[C@H](C)CCCCCN([C@H](C)c3ccccc3)C(=O)c3cc(cc(-c4ncco4)c3)C(=O)N2)c1 [BACE_7]"
  VALUE OBSERVED: "2 nM"
- COMPOUND: "Cc1cc2cc(n1)OCCCCOc1cccc(c1)C[C@@H]([C@H](O)CNC(C)(C)c1cc(C(C)(C)C)sn1)NC2=O [BACE_110]"
  VALUE OBSERVED: "120 nM"
- COMPOUND: "CC(C)c1cccc(CNC[C@@H](O)[C@@H]2C[C@H](C)CCOCCCCNc3cc(cc(Cl)n3)C(=O)N2)c1 [BACE_8]"
  VALUE OBSERVED: "31 nM"

====

A set of molecules tested on Beta-secretase 1 (Homo sapiens, UniProt P56817), with measured IC50:

- SMILES: "C[C@@H]1CCCCCCCOc2cccc(c2)C(=O)N[C@H]([C@H](O)CNCc2cncc(CC(C)(C)C)c2)C1"
  QUANTITY UNIT: "µM"
  IC50: 0.88
- SMILES: "CC(C)c1cccc(CNC[C@@H](O)[C@@H]2Cc3cccc(c3)CCCCN(C)c3cccc(c3)C(=O)N2)c1"
  QUANTITY UNIT: "µM"
  IC50: 1
- SMILES: "COCc1cc2cc(c1)C(=O)N[C@H]([C@H](O)CNCc1cccc(C(C)C)c1)Cc1cccc(c1)OCCCCO2"
  QUANTITY UNIT: "µM"
  IC50: 0.072
- SMILES: "CC(C)c1cccc(CNC[C@@H](O)[C@@H]2Cc3cccc(c3)OCCCCO[C@H]3CCN(CC(=O)N2)C3=O)c1"
  QUANTITY UNIT: "µM"
  IC50: 0.26
- SMILES: "CCOc1ccc(C(F)(F)F)c(CNC[C@@H](O)[C@@H]2C[C@H](C)CCCCCCCCC(=O)N(C)[C@@H](C)C(=O)N2)c1"
  QUANTITY UNIT: "µM"
  IC50: 0.053
- SMILES: "C[C@@H]1CCCCCCCCC(=O)N(C)[C@@H](C)C(=O)N[C@H]([C@H](O)CO)C1"
  QUANTITY UNIT: "µM"
  IC50: 61
- SMILES: "C[C@@H]1CCCCCCCOc2cc(ccn2)C(=O)N[C@H]([C@H](O)CNC(C)(C)c2cc(CC(C)(C)C)on2)C1"
  QUANTITY UNIT: "µM"
  IC50: 0.031
- SMILES: "C[C@H]1C(=O)N[C@H]([C@H](O)CNCc2cncc(C3CC3)c2)Cc2cccc(c2)CCCCCCC(=O)N1C"
  QUANTITY UNIT: "µM"
  IC50: 1.1
- SMILES: "CCCCNC(=O)[C@H](C)C[C@H](O)[C@@H]1C[C@H](C)CCCCCCNc2cc(cc(OC)n2)C(=O)N1"
  QUANTITY UNIT: "µM"
  IC50: 0.46
- SMILES: "COCc1cc2cc(c1)C(=O)N[C@H]([C@H](O)CNCc1cnn(CC(C)C)c1)Cc1cccc(c1)OCCCCN2"
  QUANTITY UNIT: "µM"
  IC50: 0.1
- SMILES: "C[C@@H]1CCCCCCCNc2cc(cc(C(=O)N(C)C)c2)C(=O)N[C@H]([C@H](O)CNC2(c3cccc(C(C)(C)C)c3)CC2)C1"
  QUANTITY UNIT: "µM"
  IC50: 0.0015
- SMILES: "CC(C)c1cccc(CNC[C@@H](O)[C@@H]2C[C@H](C)CCCCC[C@H](C)CCC(=O)N(C)[C@@H](C)C(=O)N2)c1"
  QUANTITY UNIT: "µM"
  IC50: 0.019

====

ASSAY TARGET: Beta-secretase 1 (Homo sapiens)
pIC50: −log10 of the molar value.

- SMILES: "CC(C)c1cccc(CNC[C@@H](O)[C@@H]2C[C@H](C)CC/C=C/CCCNc3cc(CO)cc(c3)C(=O)N2)c1"
  pIC50: 6.46
- SMILES: "C[C@@H]1CCCCCCOCC(=O)N(C)[C@@H](C)C(=O)N[C@H]([C@H](O)CNC2(c3cccc(C(C)(C)C)c3)CC2)C1"
  pIC50: 8.12
- SMILES: "Cc1cc2cc(n1)NN(C(=O)c1ccc(F)cc1)CCCCCC[C@@H](C)C[C@@H]([C@H](O)CNCc1cccc(C(C)C)c1)NC2=O"
  pIC50: 7.34
- SMILES: "NC[C@@H](O)[C@@H]1Cc2cccc(c2)OC/C=C\\CNc2cc(cc(Cl)n2)C(=O)N1"
  pIC50: 4.40
- SMILES: "C[C@@H]1CCCCCCOCC(=O)N(C)[C@@H](C)C(=O)N[C@H]([C@H](O)CNCc2cncc(Br)c2)C1"
  pIC50: 6.29
- SMILES: "C[C@@H]1CCOCCCCNc2cc(ccc2Cl)C(=O)N[C@H]([C@H](O)CNCc2cc(C(C)(C)C)ccn2)C1"
  pIC50: 6.82
- SMILES: "Cc1cc2cc(n1)OCc1ccccc1COc1cccc(c1)C[C@@H]([C@H](O)CNC1(c3cccc(C(C)C)c3)CC1)NC2=O"
  pIC50: 5.85
- SMILES: "COc1cc2cc(n1)N(C)CCCCc1cccc(c1)C[C@@H]([C@H](O)CNCc1cccc(C(C)C)c1)NC2=O"
  pIC50: 7.05
- SMILES: "CC(C)c1cccc(C(C)(C)NC[C@@H](O)[C@@H]2C[C@H](C)CCCCCCCNc3cccc(n3)C(=O)N2)c1"
  pIC50: 5.54
- SMILES: "CC(C)c1cccc(CNC[C@@H](O)[C@@H]2C[C@H](C)CCCCCCCOc3cc(cc(N(C)S(C)(=O)=O)c3)C(=O)N2)c1"
  pIC50: 7.96
- SMILES: "CCCCNC(=O)[C@H](C)C[C@H](O)[C@@H]1C[C@H](C)CCCCCCC[C@H](NC(=O)c2ccncc2)C(=O)N[C@@H](C)C(=O)N1"
  pIC50: 9.30
- SMILES: "COCc1cc2cc(c1)C(=O)N[C@H]([C@H](O)CNCc1cc(OC)cc(OC)c1)C[C@H](C)CCCCCCCN2"
  pIC50: 5.82
- SMILES: "CC(C)Oc1ccc(C2CC2)cc1CNC[C@@H](O)[C@@H]1C[C@H](C)CCCCCCOCC(=O)N(C)[C@@H](C)C(=O)N1"
  pIC50: 5.82
- SMILES: "CC(C)c1cccc(CNC[C@@H](O)[C@@H]2C[C@H](C)CCCCCCCOc3cc(cc(-c4ncco4)c3)C(=O)N2)c1"
  pIC50: 7.17
- SMILES: "CCCCNC(=O)[C@H](C)C[C@H](O)[C@@H]1Cc2cccc(c2)CCCCCNc2cc(cc(OC)n2)C(=O)N1"
  pIC50: 6.89
- SMILES: "COCc1cc2cc(c1)C(=O)N[C@H]([C@H](O)CNCc1cc(C(F)(F)F)ccc1F)C[C@H](C)CCOCCCCN2"
  pIC50: 5.25
